# System: coagulase-negative staphylococci
# test name: Antibacterial activity against Tmp-resistant coagulase-negative staphylococci by agar dilution method
Kindly supply the reported MIC50 values for the records listed here.
Numbers only; they are read as µg/mL.

MIC50 in this record for CN(C)c1ccc(O)c2c1C[C@H]1C[C@H]3[C@H](N(C)C)C(O)=C(C(N)=O)C(=O)[C@@]3(O)C(O)=C1C2=O : 0.5

Short answer for CC(=O)NC[C@H]1CN(c2ccc(N3CCOCC3)c(F)c2)C(=O)O1 : MIC50 was 1

The molecule listed as COc1cc(Cc2cnc(N)nc2N)cc(/C=C/C(=O)N2N=Cc3ccccc3C2c2cnc(N(C)C)nc2)c1OC (centres undefined) shows MIC50 equal to 0.125

Record COc1cc(Cc2cnc(N)nc2N)cc(/C=C/C(=O)N2N=Cc3ccccc3C2c2cnc(N3CCOCC3)nc2)c1OC (centres undefined) . Reported MIC50: 0.125

Just so you know, measured MIC50 for CN[C@H](CC(C)C)C(=O)N[C@H]1C(=O)N[C@@H](CC(N)=O)C(=O)N[C@H]2C(=O)N[C@H]3C(=O)N[C@H](C(=O)N[C@H](C(=O)O)c4cc(O)cc(O)c4-c4cc3ccc4O)[C@H](O)c3ccc(c(Cl)c3)Oc3cc2cc(c3O[C@@H]2O[C@H](CO)[C@@H](O)[C@H](O)[C@H]2O[C@H]2C[C@](C)(N)[C@H](O)[C@H](C)O2)Oc2ccc(cc2Cl)[C@H]1O came out at 2

MIC50 for CCC[C@@H]1C[C@@H](C(=O)N[C@@H]([C@H]2O[C@H](SC)[C@H](O)[C@@H](O)[C@H]2O)[C@H](C)Cl)N(C)C1 is 2

Memo: CO[C@H]1/C=C/O[C@@]2(C)Oc3c(C)c(O)c4c(O)c(c(/C=N/N5CCN(C)CC5)c(O)c4c3C2=O)NC(=O)/C(C)=C\C=C\[C@H](C)[C@H](O)[C@@H](C)[C@@H](O)[C@@H](C)[C@H](OC(C)=O)[C@@H]1C , reported MIC50: 0.008

Sure, the documented MIC50 for COc1ncc(C2c3ccccc3C=NN2C(=O)/C=C/c2cc(Cc3cnc(N)nc3N)cc(OC)c2OC)cn1 (centres undefined) is 0.125

====

# Test system: Staphylococcus aureus
# test name: Antibacterial activity against methicillin-resistant Staphylococcus aureus 145 by broth macrodilution method
# Format: functional
Would you mind telling me the reported MIC of each entry?
Output spec: scalar in µg/mL, unitless text.

Lookup result for COc1cc(Cc2cnc(N)nc2N)cc(/C=C/C(=O)N2N=Cc3ccccc3C2c2cnc(N3CCOCC3)nc2)c1OC (configuration not stated) ; measured MIC: 0.25

The compound identified as COc1ncc(C2c3ccccc3C=NN2C(=O)/C=C/c2cc(Cc3cnc(N)nc3N)cc(OC)c2OC)cn1 (configuration not stated) registered its MIC at 0.25

Briefly, MIC measured for CO[C@H]1/C=C/O[C@@]2(C)Oc3c(C)c(O)c4c(O)c(c(/C=N/N5CCN(C)CC5)c(O)c4c3C2=O)NC(=O)/C(C)=C\C=C\[C@H](C)[C@H](O)[C@@H](C)[C@@H](O)[C@@H](C)[C@H](OC(C)=O)[C@@H]1C [RIFAMPIN] : 0.008

// MIC value for CN(C)c1ccc(O)c2c1C[C@H]1C[C@H]3[C@H](N(C)C)C(O)=C(C(N)=O)C(=O)[C@@]3(O)C(O)=C1C2=O [MINOCYCLINE] : 4

get_value(item= COc1cc(Cc2cnc(N)nc2N)cc(/C=C/C(=O)N2N=Cc3ccccc3C2c2cnc(N(C)C)nc2)c1OC (configuration not stated) , readout=MIC) returns 0.25
